Recorded Protein ELISA values for a group of sequences are listed next.
molecular target: cMet-Fc fusion protein (Homo sapiens, UniProt P08581); experiment: Protein phage ELISA: peptide-displaying phage binding to soluble cMet-Fc versus TRAIL-Fc; conditions: phage isolate; cMet-Fc vs. TRAIL-Fc
Sequence (P08581 25-307 limits assumed): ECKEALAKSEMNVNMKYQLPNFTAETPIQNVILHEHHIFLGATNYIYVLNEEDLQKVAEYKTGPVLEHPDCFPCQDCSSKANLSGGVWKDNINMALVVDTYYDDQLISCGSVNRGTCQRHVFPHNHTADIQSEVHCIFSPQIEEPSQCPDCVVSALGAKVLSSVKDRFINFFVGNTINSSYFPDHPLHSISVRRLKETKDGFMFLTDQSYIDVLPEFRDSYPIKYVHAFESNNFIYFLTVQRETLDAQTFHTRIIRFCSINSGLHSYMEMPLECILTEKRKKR
Sequence (P08581 with tags, fused parts or gaps limits assumed): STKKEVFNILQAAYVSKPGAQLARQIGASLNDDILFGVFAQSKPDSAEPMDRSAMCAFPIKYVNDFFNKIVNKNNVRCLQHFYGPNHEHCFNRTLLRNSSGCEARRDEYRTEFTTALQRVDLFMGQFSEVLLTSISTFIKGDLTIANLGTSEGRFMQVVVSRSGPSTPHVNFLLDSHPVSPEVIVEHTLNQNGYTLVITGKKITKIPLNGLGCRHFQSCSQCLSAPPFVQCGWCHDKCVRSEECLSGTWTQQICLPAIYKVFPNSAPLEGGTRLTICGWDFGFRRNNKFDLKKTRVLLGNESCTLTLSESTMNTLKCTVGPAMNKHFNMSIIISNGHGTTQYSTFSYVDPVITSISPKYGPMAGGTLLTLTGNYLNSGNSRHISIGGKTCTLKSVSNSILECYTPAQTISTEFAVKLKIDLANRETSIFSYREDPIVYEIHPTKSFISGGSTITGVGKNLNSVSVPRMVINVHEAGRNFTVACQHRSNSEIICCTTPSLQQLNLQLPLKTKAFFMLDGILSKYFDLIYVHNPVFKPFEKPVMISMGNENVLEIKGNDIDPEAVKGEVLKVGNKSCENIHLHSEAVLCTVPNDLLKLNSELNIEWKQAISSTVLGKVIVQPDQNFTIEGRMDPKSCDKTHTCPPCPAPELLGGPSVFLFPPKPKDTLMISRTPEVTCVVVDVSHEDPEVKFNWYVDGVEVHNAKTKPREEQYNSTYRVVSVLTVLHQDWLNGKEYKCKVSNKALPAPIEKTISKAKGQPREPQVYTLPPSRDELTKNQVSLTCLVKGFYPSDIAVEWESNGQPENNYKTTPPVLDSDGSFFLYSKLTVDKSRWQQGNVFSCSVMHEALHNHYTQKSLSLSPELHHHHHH
Enter your answer as a number in fold over background; do not include the unit.

The examples below pair each entry with its known result.
1) AGQFKCAGPPSFACWMTGT (Synthetically generated cMet-binding peptide sequence) [SEQ ID NO: 050]; 14.8
2) GSGMGCHQVNISTGDCAEDAP (Synthetically generated cMet-binding peptide sequence) [SEQ ID NO: 381]; 3.9

Lookup: Using known records, supply Protein ELISA for AQQWMFQIHQSMAWPYEWIDSY (Synthetically generated cMet-binding peptide sequence) [SEQ ID NO: 494]
Found: 3.9

* * *

target: cMet-Fc fusion protein (Homo sapiens); assay: Protein phage ELISA: peptide-displaying phage binding to soluble cMet-Fc versus TRAIL-Fc; settings: phage isolate; cMet-Fc vs. TRAIL-Fc
Decide using Protein ELISA: a value greater than or equal to 4 fold over background is true, a smaller one is false.

# count of solved cases: 5
1. AGSSPCKGWPTFECYFYGT (Synthetically generated cMet-binding peptide sequence) [SEQ ID NO: 087]; true
2. GSFAPCGWPSFAIDCIAEAP (Synthetically generated cMet-binding peptide sequence) [SEQ ID NO: 367]; true
3. AGIWFCNNEEKSCWAYGT (Synthetically generated cMet-binding peptide sequence) [SEQ ID NO: 040]; false
4. GSEYSCRTSRCIFSAP (Synthetically generated cMet-binding peptide sequence) [SEQ ID NO: 006]; false
5. AGYPECKDNYHWCEWKGT (Synthetically generated cMet-binding peptide sequence) [SEQ ID NO: 024]; true

Lookup: Hi, just wondering whether AQEWQTWTWNMIEVISENKTP (Synthetically generated cMet-binding peptide sequence) [SEQ ID NO: 468] shows Protein ELISA of 4 fold over background or higher.
Found: false

Lookup: Hi, just wondering whether GSFTACNKTSTTRQPCNPYAP (Synthetically generated cMet-binding peptide sequence) [SEQ ID NO: 384] shows Protein ELISA of 4 fold over background or higher.
Found: false

* * *

Recorded Protein ELISA values for a group of sequences are listed next.
molecular target: cMet-Fc fusion protein (Homo sapiens, UniProt P08581); assay: Protein phage ELISA: peptide-displaying phage binding to soluble cMet-Fc versus TRAIL-Fc; details: phage isolate; cMet-Fc vs. TRAIL-Fc
Enter your answer as a number in fold over background; do not include the unit.

The examples below pair each entry with its known result.
1. AGQMWCAEKNSKCYQWGT (Synthetically generated cMet-binding peptide sequence) [SEQ ID NO: 030]; 3.2
2. AQLFQYLWHDDPQGAFFQLSMW (Synthetically generated cMet-binding peptide sequence) [SEQ ID NO: 483]; 3.1
3. AGWTWCDLSMMSCIFHGT (Synthetically generated cMet-binding peptide sequence) [SEQ ID NO: 025]; 3.2
4. AQMYQTPDGVIGKFVDWMFN (Synthetically generated cMet-binding peptide sequence) [SEQ ID NO: 455]; 8.0
5. GSAGWCYTMNYVDQLCTYMAP (Synthetically generated cMet-binding peptide sequence) [SEQ ID NO: 387]; 3.7

Lookup: Report Protein ELISA on cMet-Fc fusion protein (Homo sapiens, UniProt P08581) for this entry: AGETFCSGWPTFECMQWGT (Synthetically generated cMet-binding peptide sequence) [SEQ ID NO: 095]
Found: 16.2

Lookup: Report Protein ELISA on cMet-Fc fusion protein (Homo sapiens, UniProt P08581) for this entry: GDNRFCSWVYNVDDWWCVDNDP (Synthetically generated cMet-binding peptide sequence) [SEQ ID NO: 398]
Found: 6.2

Lookup: Report Protein ELISA on cMet-Fc fusion protein (Homo sapiens, UniProt P08581) for this entry: GSLIICWWSWCDKQAP (Synthetically generated cMet-binding peptide sequence) [SEQ ID NO: 009]
Found: 3.8

Numbers sourced from patent US9845340B2.
